Reported CC50 values follow for various compounds
assay: Cytotoxicity against mock-infected African green monkey Vero 76 cells assessed as reduction in proliferation after 48 to 96 hrs by MTT method; type: cell-based; settings: chlorocebus sabaeus, Vero 76 cells (mock-infected)
MEASURED_METRIC: CC50

                                   molecule  measured_metric    result
0        N#Cc1ccc(-c2nc3cc(Br)cnc3[nH]2)cc1             CC50     73 µM
1  Nc1c(/N=C/c2ccc(C(F)(F)F)c([N+](=O)[O-])c2)cc2cccnc2c1Cl             CC50     90 µM
2  C#C[C@@]1(O)[C@H](O)[C@@H](CO)O[C@H]1n1ccc(N)nc1=O             CC50  > 100 µM
3     Nc1ccn(C[C@@H](CO)OCP(=O)(O)O)c(=O)n1             CC50  > 100 µM
4  Nc1c(/N=C/c2ccc(C(F)(F)F)cc2)cc2cccnc2c1Cl             CC50     90 µM
5  O=[N+]([O-])c1ccc(-c2nc3cc4cccnc4c(Cl)c3[nH]2)cc1             CC50  > 100 µM
6     CC(=O)c1ccc(-c2nc3cc(Br)cnc3[nH]2)cc1             CC50     50 µM
7              Brc1cnc2[nH]c(-c3ccoc3)nc2c1             CC50     40 µM
8  Nc1c(/N=C/c2ccc([N+](=O)[O-])cc2)cc2cccnc2c1Cl             CC50  > 100 µM
9       FC(F)(F)c1ccc(-c2nc3cccnc3[nH]2)cc1             CC50  > 100 µM
